Reference source: PubChem BioAssay AID588778

Measured inhibition by item
# procedure.details: Vibrio cholerae motility inhibitors, OD read-out (AID 588778)
# condition.summary: measured here: bacterial viability at 10 ug/mL, stronger effect = higher value
The whole screen tested about 10,000 compounds, of which fewer than 10 were called active. Only a sample is shown.
Just the number please, in %, no unit attached.

Reported inhibition of Cc1ccccc1NC(=O)NC1CCS(=O)(=O)C1 (stereo unspecified) : -4.02

Reported inhibition of Cc1ccc2c(c1)C(=O)C(=O)N2 : 12.9

Reported inhibition of Cn1ncc(C#N)c1NC(=O)C1CC(c2c(F)cccc2Cl)=NO1 (stereo unspecified) : 10.8

Reported inhibition of NC(=O)C1(N2CCCCC2)CCN(C(=O)CSc2nc3ccccc3o2)CC1 : -1.26

Reported inhibition of COc1cc(C=O)ccc1OC(=O)c1nsc(Cl)c1Cl : 2.66

----------
# procedure.details: Vibrio cholerae motility inhibitors, OD read-out (AID 588778)
# condition.summary: stronger effect = higher value, concentration not given here
The campaign covered roughly 10,000 compounds. Fewer than 10 were called active. Only a sample is shown.
assay.metric: inhibition (%)
Just the number please, in %, no unit attached.

Please review the entries below; each comes with its answer.
OC(COCc1ccc(Cl)cc1)CN1CCN(c2cccc(Cl)c2)CC1 (stereo unspecified): 37.3
COc1ccc2cnn(-c3ccccc3)c(=O)c2c1OC: 12
Cc1cc(C)n2nc(Cc3ccccc3)c(-c3cccc4ccccc34)c2n1: 0.73
Cc1cc(NC(=O)COc2cc(C)c(Cl)c(C)c2)no1: 3.92
CC(=O)CSc1nnc(-c2cccnc2)o1: -0.39

Reported inhibition of O=C(O)C(Cc1ccccc1)N1C(=O)/C(=C/c2ccc([N+](=O)[O-])cc2)SC1=S (stereo unspecified) : 8.42

Reported inhibition of COc1ccc(-c2csc3ncnc(SCc4c(C)noc4C)c23)cc1 : 24.7

----------
# procedure.details: Vibrio cholerae motility inhibitors, OD read-out (AID 588778)
# condition.summary: measured here: bacterial viability at 10 ug/mL, stronger effect = higher value
The campaign covered roughly 10,000 compounds. Fewer than 10 were called active. These entries were drawn from the full list.
assay.metric: inhibition
Respond with a number, then the unit of measure.

Please review the entries below; each comes with its answer.
COc1ccc(-c2csc3ncnc(Oc4cccc5cccnc45)c23)cc1: -9.37%
CC(C)(C)SCCNC(=S)Nc1ccccc1: 4.53%

Reported inhibition of Cc1nc(Oc2ccc3c(c2)OCO3)c2cc(-c3ccccc3)sc2n1 : 0.3%

----------
Measured inhibition by item
# procedure.details: Vibrio cholerae motility inhibitors, OD read-out (AID 588778)
# condition.summary: stronger effect = higher value, concentration not given here
The whole screen tested about 10,000 compounds, of which fewer than 10 were called active. A selection follows.
Just the number please, in %, no unit attached.

CC1=C(C(=O)Nc2nc3ccccc3s2)C(c2ccc(F)cc2)C2=C(CCCC2=O)N1 (centres undefined): -5.34
COc1ccc([N+](=O)[O-])cc1CSc1ccccn1: -1.69
Cc1ccc2cccc(OCc3nnc(-c4ccccc4)o3)c2n1: 14.5

Reported inhibition of COc1ccc(C(=O)Nc2ncccc2O)cc1 : 10.3

Reported inhibition of CSCCC(C(=O)O)n1c(-c2ccc3ccccc3n2)n[nH]c1=S (centres undefined) : -9.7

Reported inhibition of CCN1C(=O)Cc2cc(S(N)(=O)=O)ccc21 : 13.3
